- Test Target: human P2X4 (Homo sapiens, UniProt Q99571)
- Sequence (Q99571 whole entry): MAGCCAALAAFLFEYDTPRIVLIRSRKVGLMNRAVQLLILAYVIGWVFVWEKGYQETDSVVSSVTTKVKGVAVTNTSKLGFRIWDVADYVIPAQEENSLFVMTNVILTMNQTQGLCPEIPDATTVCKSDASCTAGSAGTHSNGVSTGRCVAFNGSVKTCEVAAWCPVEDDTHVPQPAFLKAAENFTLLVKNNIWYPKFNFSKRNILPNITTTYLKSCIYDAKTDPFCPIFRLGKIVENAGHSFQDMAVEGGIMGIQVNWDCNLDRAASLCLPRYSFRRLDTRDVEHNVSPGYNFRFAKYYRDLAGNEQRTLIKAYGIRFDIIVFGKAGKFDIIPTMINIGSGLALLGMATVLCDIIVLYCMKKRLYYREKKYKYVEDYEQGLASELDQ
- Experiment Description: Human P2X4 HEK Cell FLIPR Assay
- Format: cell-based
- Parameters: expressed in transfected cells; host or cells: HEK293
- Study Conditions: HEK293 cells, agonist Bz-ATP at EC80
Please respond with reported IC50 for every item in the list.
One number for each entry, in nM.

Use these answered entries as a reference point.
>  <Chemical Structure>
NS(=O)(=O)c1cc(NC(=O)Cc2ccccc2Cl)ccc1-n1cc(Br)cn1

>  <Test Target>
human P2X4 (Homo sapiens, UniProt Q99571)

>  <Data Value>
31

$$$$
>  <Chemical Structure>
NS(=O)(=O)c1cc(NC(=O)Cc2ccccc2Cl)ccc1-c1cncc(C(F)(F)F)c1

>  <Test Target>
human P2X4 (Homo sapiens, UniProt Q99571)

>  <Data Value>
25

$$$$

Attention now shifts to the item below.
Item N#Cc1cnn(-c2ccc(NC(=O)Cc3ccccc3Cl)cc2S(N)(=O)=O)c1 has what recorded IC50?
32
